Target: T1, Plasma antichymotrypsin (ACT) (UniProt P01011 24-423)
T1 construct: also called plasma ACT
T1 sequence (looked up): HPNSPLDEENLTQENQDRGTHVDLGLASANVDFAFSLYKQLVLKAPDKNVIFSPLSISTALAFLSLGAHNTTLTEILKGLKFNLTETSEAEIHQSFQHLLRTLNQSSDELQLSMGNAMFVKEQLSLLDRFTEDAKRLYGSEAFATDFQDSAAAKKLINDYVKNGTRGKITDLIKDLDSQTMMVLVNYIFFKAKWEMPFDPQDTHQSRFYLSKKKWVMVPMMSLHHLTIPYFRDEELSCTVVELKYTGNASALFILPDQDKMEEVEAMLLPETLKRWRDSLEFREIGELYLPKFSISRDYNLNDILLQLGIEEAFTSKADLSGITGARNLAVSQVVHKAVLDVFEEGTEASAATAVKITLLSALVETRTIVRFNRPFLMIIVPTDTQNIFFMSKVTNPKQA
Experiment: serpin inhibition of the protease
# reported kapp; entries follow
Give your result in M⁻¹ s⁻¹ as a bare value.

// returns reported kapp for input chymase C22S/K40M/F41R/L99N/G151S/F173Y/S218L/A226R (enzyme) IIGGTESKPHSRPYMAYLEIVTSNGPSMRCGGFLIRRNFVLTAAHCAGRSITVTLGAHNITEEEDTWQKLEVIKQFRHPKYNTSTNHHDIMLLKLKEKASLTLAVGTLPFPSQFNFVPPGRMCRVAGWGRTGVLKPSSDTLQEVKLRLMDPQACSHYRDFDHNLQLCVGNPRKTKSAFKGDSGGPLLCAGVAQGIVSYGRLDAKPPRVFTRISHYRPWINQILQAN
317

// returns reported kapp for input chymase C22S/S189T/A190S/A226R (enzyme) IIGGTESKPHSRPYMAYLEIVTSNGPSKFCGGFLIRRNFVLTAAHCAGRSITVTLGAHNITEEEDTWQKLEVIKQFRHPKYNTSTLHHDIMLLKLKEKASLTLAVGTLPFPSQFNFVPPGRMCRVAGWGRTGVLKPGSDTLQEVKLRLMDPQACSHFRDFDHNLQLCVGNPRKTKTSFKGDSGGPLLCAGVAQGIVSYGRSDAKPPRVFTRISHYRPWINQILQAN
935
